Measured pIC50, listed per entry.
- SYSTEM_TESTED: recombinant human FGFR2 cytoplasmic domain (Homo sapiens (Human))
- Sequence (P21802 402-821): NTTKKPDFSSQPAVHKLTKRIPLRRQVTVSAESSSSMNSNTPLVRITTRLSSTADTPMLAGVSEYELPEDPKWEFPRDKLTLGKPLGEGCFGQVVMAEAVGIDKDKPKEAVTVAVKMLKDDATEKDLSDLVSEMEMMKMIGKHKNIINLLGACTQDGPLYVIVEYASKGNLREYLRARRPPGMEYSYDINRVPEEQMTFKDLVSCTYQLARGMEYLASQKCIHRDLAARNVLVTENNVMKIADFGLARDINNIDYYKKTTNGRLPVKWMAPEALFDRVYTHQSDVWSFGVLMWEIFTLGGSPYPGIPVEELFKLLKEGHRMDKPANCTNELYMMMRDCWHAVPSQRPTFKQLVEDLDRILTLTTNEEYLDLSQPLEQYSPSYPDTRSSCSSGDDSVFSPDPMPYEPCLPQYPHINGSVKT
- METHOD_SUMMARY: FGFR Enzyme Activity Assay (LanthaScreen TR-FRET), FGFR2
- ASSAY_SETUP: 15 μM ATP, 20 minute incubation; read-out: FGFR2 Enz FRET IC50
pIC50: −log10 of the molar value.
READOUT_TYPE: pIC50

COMPOUND	SYSTEM_TESTED	TEST_VALUE
COc1cc(Nc2ccc3ncc(-c4cn(C5CCN(C(=O)C6(F)CN(C(=O)/C=C/CN(C)C)C6)CC5)nc4C)nc3c2)cc(OC)c1 [Example 22]	recombinant human FGFR2 cytoplasmic domain (Homo sapiens (Human))	7.08
COc1cc(Nc2ccc3ncc(-c4cnn(C5CCN(C(=O)C6(F)CN(C(=O)/C=C/CN(C)C)C6)CC5)c4C)nc3c2)cc(OC)c1 [Example 17]	recombinant human FGFR2 cytoplasmic domain (Homo sapiens (Human))	6.93
COc1cc(Nc2ccc3ncc(-c4cnn([C@@H]5CCN(C(=O)C6CN(C(=O)/C=C/CN(C)C)C6)C5)c4)nc3c2)cc(OC)c1 [Example 20]	recombinant human FGFR2 cytoplasmic domain (Homo sapiens (Human))	6.97
COc1cc(Nc2ccc3ncc(-c4ccc(N5CCN(C(=O)C6CN(C(=O)/C=C/CN(C)C)C6)CC5)nc4)nc3c2)cc(OC)c1 [Example 6]	recombinant human FGFR2 cytoplasmic domain (Homo sapiens (Human))	6.91

Values were extracted from patent US12351571B2.
